Target or system: T1, wt-ERα LBD (wild-type estrogen receptor α ligand-binding domain, amino acids 302–552) (human, UniProt P03372 302-552)
T1 construct: also called wild-type ERα LBD; apo-ERα
T1 sequence (looked up): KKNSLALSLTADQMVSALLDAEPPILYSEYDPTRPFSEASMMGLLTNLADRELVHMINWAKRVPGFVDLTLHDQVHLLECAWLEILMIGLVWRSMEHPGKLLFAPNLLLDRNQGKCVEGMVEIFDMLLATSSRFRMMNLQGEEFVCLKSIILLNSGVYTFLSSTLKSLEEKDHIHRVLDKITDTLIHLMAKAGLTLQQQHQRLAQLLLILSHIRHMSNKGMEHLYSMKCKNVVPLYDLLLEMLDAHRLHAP
Assay protocol: fluorescence polarisation; fluorescence anisotropy as a1, with 4-OP at 2 molar equivalents of the highest protein concentration
Condition: both partners purified
pKd: −log10 of the molar value. Primed or numbered codes have the meaning given here. Where no end group is shown, it is not given here. fluorescein″ = fluorescein label on the peptide (N-terminal, fluorescein-labeled peptide)
Assay metric: pKd

[ask] Can you share its pKd? I mean this binder: {fluorescein″}-RHKILHRLLQEGS (also called fluorescein-labeled SRC-1 NR2 peptide; SRC-1 NR2 peptide; source: synthetic peptide, bought: EZbiolab) [fluorescein-RHKILHRLLQEGS peptide corresponding to the NR box 2-binding motif of SRC-1]
[reply] ≤ 6.00
